# ASSAY_REMARKS: soluble on expression in E. coli; label from the status in PepcDB or PDB records
EXPERIMENTAL_ENDPOINT: soluble on expression in E. coli

MWGACKVKVHDSLATISITLRRYLRLGATMAKSKFEYVRDFEADDTCLAHCWVVVRLDGRNFHRFAEKHNFAKPNDSRALQLMTKCAQTVMEELEDIVIAYGQSDEYSFVFKRKTNWFKRRASKFMTHVASQFASSYVFYWRDYFEDQPLLYPPGFDGRVVVYPSNQTLKDYLSWRQADCHINNLYNTVFWALIQQSGLTPVQAQGRLQGTLAADKNEILFSEFNINYNNEPPMYRKGTVLIWQKVDEVMTKEIKLPTEMEGKKMAVTRTRTKPVPLHCDIIGDAFWKEHPEILDEDS soluble
IRQTYEQSCGASSLATLLNILDDQKKFDELELLKIMSGQELYTDMVSFADLNDAVKKLGFQSNSYQINRENLDKLVNIPMLVKIEDDPRFPHFVIIINHKGNYLQVLDPSHGEYISSKSQFFSIWDRYNKGGYALIVAP not soluble
HSLLPVDDAINGLSEEQRQLRQTMAKFLQEHLAPKAQEIDRSNEFKNLREFWKQLGNLGVLGITAPVQYGGSGLGYLEHVLVMEEISRASGAVGLSYGAHSNLCINQLVRNGNEAQKEKYLPKLISGEYIGALAMSEPNAGSDVVSMKLKAEKKGNHYILNGNKFWITNGPDADVLIVYAKTDLAAVPASRGITAFIVEKGMPGFSTSKKLDKLGMRGSNTCELIFEDCKIPAANILGHENKGVYVLMSGLDLERLVLAGGPLGLMQAVLDHTIPYLHVREAFGQKIGHFQLMQGKMADMYTRLMACRQYVYNVAKACDEGHCTAKDCAGVILYSAECATQVALDGIQCFGGNGYINDFPMGRFLRDAKLYEIGAGTSEVRRLVIGRAFNADFH soluble
GPGSMIAILFGFTLGTAVGACNRAHYSSYGSSVYIAPLPSNSHNSLAFMDIARYRAGLFTTHQSVCGRVVIELFDSISPVSTTNFRGLCQGKHGTSGTGHKLCYSGTRLLPNECFIRGGDVTFGSAAGGWSIYGRSFREMAKGSSSSSRSSDVKGKGLVYAVGANAQWGSEFLITVDGFTPGEDHILLGQVVEGYDVLQRLQQQSLLPHAKRFIHYRILKAGVLKEAETPNYGKGSAFLRF not soluble
MSLDNIIIIQTKNPNYYAIKYAYKNQYEQFYEEELNIRKKLNYPPFNKIIRIIFRSKNEESAKQKCWEFFEKSKEFLQEEIEHLGPSEAIMKKISKNYRYNIIYLSKSYSLLEKLVNKTKEKVKMTSTVYIEIDYYPISEGHHHHHH not soluble
MSRDIDYGNLMHTAMRGLIKTVLADVAQHGLPGAHHFFITFDTRYEGVQLADWLADRYPGEMTIVMQHWYENLDVGEDGFAITLNFGDSPEPLYIPYDAIRTFVDPSVEFGLRFESPDFDEDDEDDIEVEEEPDAPKPDAEVVSLDSFRKPLEHHHHHH soluble
MSKPEFIARQGRKPTGWLGHIVARVMARETRPENDRALSFLDLADGDSLIDIGCGHGETLFQADRIVRLSGSVGVDFSEVMLKRARARNRDAVWDTRMAFHCADTAALPFPDKRFGKALSVHTIYFWPNPAAHLAEAFRVLRRGGRFLFCYRSTADRRAVEEFPDTVYRFPSVQEVEEKLKLVGFLGPETTTEDIKGRLTHWSIAEKPLEHHHHHH soluble
NKDGPVCLQVKPCTPEFYQTHFQLAYRLQSRPRGLALVLSNVHFTGEKELEFRSGGDVDHSTLVTLFKLLGYDVHVLCDQTAQEMQEKLQNFAQLPAHRVTDSCIVALLSHGVEGAIYGVDGKLLQLQEVFQLFDNANCPSLQNKPKMFFIQACRGDETDRGVDQQD soluble

Challenge: Could you tell me which soluble on expression in E. coli is on file for MGSDKIHHHHHHMSGDTCLCPASGAKPKISGFKGGGLGNKYVQLNVGGSLYYTTVRALTRHDTMLKAMFSGRMEVLTDKEGWILIDRCGKHFGTILNYLRDDTITLPQSRQEIQELMAEAKYYLIQGLVSTCQTALQDKKDSYQPVCNIPIITSLREEDRLIESSTKPVVKLLYNRSNNKYSYTSNSDDHLLKNIELFDKLSLRFNGRVLFIKDVIGDEICCWSFYGQGRKLAEVCCTSIVYATEKKQTKVEFPEARIYEETLNVLLYETPRVPDNSLLEATSRSRSQASPSEDEDTFELRDRVRRIHVKRYSTYDDRQLGHQSTHRD ?
Response given: not soluble

Challenge: Could you tell me which soluble on expression in E. coli is on file for MVEVKPIIIDGHPFIAVSVQLPKTNLLAVAGEKGYIMCGALDVALLNEKLRDRGIIAGRAVGVRTIEQLLEAPLESVTVAALELGIEEGMKGREALLKMR ?
Response given: not soluble

Challenge: Could you tell me which soluble on expression in E. coli is on file for MKACGIIVEYNPFHNGHRYHAQQARQQSGAEVVIAIMSGNFLQRGEPALLDKWARAEEALQNGVDLVIELPTAWSVQSADYFAKGGIKLLQALQCESLCFGTDSTSAIDYAAFGQFVQENQSLIDQTFHALTDKQLSYPQKMTAVFRQVYPESRFDFSSPNHILGMSYAKENATYPTPMTLYPIARKQAGFHDATISGKVASATAIRQSVFQQEITQVLPTVPSITAQHLQTQTMISWENYWPFLKYKIVQSSLEELQAIYQMTEGLEYRLKDQIQAAGSFHELMERMKTKRYTWTRLQRLATYILLNMTKEEVETVWQNSYLHVLGFTPKGQAYLKETKAQIQLPVISKVSKENRAMLSLDIRANQLYQMGDSSLKEQNFGRFPLRFSPDT ?
Response given: not soluble

Challenge: Could you tell me which soluble on expression in E. coli is on file for MSLKNTTHFIVFDIERNFRPYKSDDPSEIVDIGAVKIEASTMKVIGEFSELVKPGARLTRHTTKLTGITKKDLMNVEKFPQIIERFIQFIGEDSIFVTWGKEDYRFLVHDCTLHGVDCPCMEKERRIDLQKFVFQAYEELFEHTPSLQSAVEQLGLTWEGKQHRALADAENTANILLKAYSERDITKRYKRHGELELVENGKLTEKAKKKMRKWVFKEMRKNTERPFAWSTFESSDTWESITERYYISEPTIELLKKHFRTAVRKAERRIRYLAEMEKNAEVKEGHHHHHH ?
Response given: soluble
